Hello, the source for this data is patent WO2018095428A1, in case you need it.

target-under-test: T1, human CD47-his (Sino Biological, CAT#12283-HCCH-50) (human, UniProt Q08722 19-139, limits assumed)
T1 construct: Bought protein used as analyte in Biacore; also called 人CD47-his; human CD47-his antigen; not shown: His tag of the bought protein
T1 sequence (Q08722 19-139 limits assumed): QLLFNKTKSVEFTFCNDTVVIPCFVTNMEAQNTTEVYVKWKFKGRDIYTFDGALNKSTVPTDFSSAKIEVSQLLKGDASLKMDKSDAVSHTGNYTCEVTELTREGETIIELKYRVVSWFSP
assay-protocol: SPR (Biacore): antibody captured with human Fab capture kit on CM5 chip, human CD47-his flowed over
measure-name: koff (s⁻¹)
Dear colleague, please return just the value in s⁻¹, with no unit written.

Check out these entries, answers already filled in.
>>> recorded_value("chimeric antibody ch-167 (antibody, V domains shown) VH: QVQLQQPGAELVRPGSSVKLSCKASGYTFTSYWMHWVKQRPIQGLEWVGNIDPSDSETHYNQKFKDKATLTVDKSSSTAYMQLSSLTSEDSAVYYCARWGYLGRSAMDYWGQGTSVTVSS VL: DVQITQSPSYLAASPGETITINCRTSKSISKFLAWYQEKPGKTHKLLIYSGSTLQSGIPSRFSGSGSGTDFTLTISSLEPEDFAMYYCQQHNEYPWTFGGGTKLEIK")
0.000558
>>> recorded_value("hu055-5 (antibody, V domains shown) VH: QVQLVQSGAEVKKPGASVKVSCKASGYTFTSSYLHWVRQAPGQRLDWIGWIYPESGNTKYNERFKGRATLTADTSASTAYMELSSLRSEDTAVYYCARRGDVFFAYWGQGTTVTVSS VL: DIVMTQSPDSLAVSLGERATINCKSSQSLLTSGKQKNYLTWYQQKPGQPPKLLIYWASTRESGVPDRFSGSGSGTDFTLTISSLQAEDVAVYYCQNDYSYPLTFGQGTKLEIKR")
0.000382
>>> recorded_value("chimeric antibody ch-055 (antibody, V domains shown) VH: QVLLQQSGPELVQPGASVKISCKASGYSFTSSYLHWVKQRPGQGLDWIGWIYPESGNTKYNERFKGKATLTADTSSSTAYMQLSSLTSEDSAVYYCSRRGDVFFAYWGQGTTLTVSS VL: DIVMTQSPSYLTVTAGEKVTMSCKSSQSLLTSGKQKNYLTWYQQKPGQPPKLLIYWASTRESGVPERFRGSGSGTDFTLTISSVQAEDLAVYYCQNDYSYPLTFGAGTKLELN")
0.000389

Incoming: Give koff for the following binder: hu167-1 (antibody, V domains shown) VH: QVQLVQSGAEVKKPGASVKVSCKASGYTFTSYWMHWVRQAPGQGLEWMGNIDPSDSETHYNQKFKDRVTMTRDTSISTAYMELSRLRSDDTAVYYCARWGYLGRSAMDYWGQGTTVTVSS VL: DIQMTQSPSSLSASVGDRVTITCRTSKSISKFLAWYQQKPGKAPKLLIYSGSTLQSGVPSRFSGSGSGTDFTLTISSLQPEDFATYYCQQHNEYPWTFGGGTKVEIK
Outgoing: 0.000991

Incoming: Please supply the value of reported koff for the item hu055-1 (antibody, V domains shown) VH: QVQLVQSGAEVKKPGASVKVSCKASGYTFTSSYLHWVRQAPGQRLEWMGWIYPESGNTKYNERFKGRVTITRDTSASTAYMELSSLRSEDTAVYYCARRGDVFFAYWGQGTTVTVSS VL: DIVMTQSPDSLAVSLGERATINCKSSQSLLTSGKQKNYLTWYQQKPGQPPKLLIYWASTRESGVPDRFSGSGSGTDFTLTISSLQAEDVAVYYCQNDYSYPLTFGQGTKLEIK
Outgoing: 0.000976

Incoming: Give recorded koff. hu055-8 (antibody, V domains shown) VH: QVQLVQSGAEVKKPGASVKVSCKASGYTFTSSYLHWVRQAPGQRLEWMGWIYPESGNTKYNERFKGRVTITRDTSASTAYMELSSLRSEDTAVYYCARRGDVFFAYWGQGTTVTVSS VL: DIVMTQSPDSLAVSLGERATINCKSSQSLLTSGKQKNYLTWYQQKPGQPPKLLIYWASTRESGVPERFSGSGSGTDFTLTISSLQAEDVAVYYCQNDYSYPLTFGQGTKLEIK
Outgoing: 0.000987
